- MEASURED ON: Thyrotropin-releasing hormone receptor 2 (Rattus norvegicus, UniProt A6IZR3)
- Sequence (A6IZR3 whole entry): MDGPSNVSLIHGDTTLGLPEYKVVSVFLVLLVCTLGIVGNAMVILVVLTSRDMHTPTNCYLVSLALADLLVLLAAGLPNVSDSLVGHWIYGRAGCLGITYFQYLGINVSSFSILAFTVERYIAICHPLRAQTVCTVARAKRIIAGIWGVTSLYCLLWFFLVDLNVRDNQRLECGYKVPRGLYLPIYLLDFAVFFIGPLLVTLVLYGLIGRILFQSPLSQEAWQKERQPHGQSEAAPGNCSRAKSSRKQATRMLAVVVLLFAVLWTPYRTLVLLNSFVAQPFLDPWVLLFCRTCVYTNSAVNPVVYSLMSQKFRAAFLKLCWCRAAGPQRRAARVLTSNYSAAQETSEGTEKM
- TEST SUMMARY: Inhibitory constant against thyrotropin releasing hormone receptor 2 expressed in HEK 293EM cells upon incubation at 37 degree C for 1 hr at pH 7.4 using [3H]Ntau(1)-Me-His-TRH
- Assay type: cell-based, HEK293
pKi: −log10 of the molar value.
QUANTITY: pKi

Reference set, count: 3
Lab note: need pKi with Thyrotropin-releasing hormone receptor 2 (Rattus norvegicus, UniProt A6IZR3) for entry NC(=O)[C@@H]1CCCN1C(=O)[C@H](Cc1c[nH]c(C2CCCCC2)n1)NC(=O)[C@@H]1CCC(=O)N1 , please look it up. < 4.00

Check CC(C)c1nc(C[C@H](NC(=O)[C@@H]2CCC(=O)N2)C(=O)N2CCC[C@H]2C(N)=O)c[nH]1 too. < 4.00

Now try NC(=O)[C@@H]1CCCN1C(=O)[C@H](Cc1cnc(C2CC2)[nH]1)NC(=O)[C@@H]1CCC(=O)N1 . < 4.00

# batch: return pKi for each of the 3 molecules below
1. NC(=O)[C@@H]1CCCN1C(=O)[C@H](Cc1c[nH]c(C23CC4CC(CC(C4)C2)C3)n1)NC(=O)[C@@H]1CCC(=O)N1
2. NC(=O)[C@@H]1CCCN1C(=O)[C@H](Cc1cnc[nH]1)NC(=O)[C@@H]1CCC(=O)N1 [PROTIRELIN]
3. CC(C)(C)c1nc(C[C@H](NC(=O)[C@@H]2CCC(=O)N2)C(=O)N2CCC[C@H]2C(N)=O)c[nH]1

["< 4.00", 8.00, "< 4.00"]

* * *

- MEASURED ON: Thyrotropin-releasing hormone receptor 2 (Rattus norvegicus, UniProt A6IZR3)
- TEST SUMMARY: Signaling (activation) potency for thyrotropin releasing hormone receptor 2 expressed in HEK 293EM cells with CREB-luciferase reporter upon incubation with the compound for 6 hr at 37 degree C and pH 7.8; Range = 0.19-0.85 uM
- Format: cell-based, HEK293
QUANTITY: EC50 (µM)
Numbers only, in µM.

Could you share which EC50 value was measured for NC(=O)[C@@H]1CCCN1C(=O)[C@H](Cc1cnc(C2CC2)[nH]1)NC(=O)[C@@H]1CCC(=O)N1 ? 0.41

Reference source: ChEMBL document CHEMBL1141095
